# pKi values compiled below
Target: Adrenergic receptor alpha-1 (Rattus norvegicus, UniProt P15823+P23944+P43140)
Assay: Displacement of [3H]prazosin from rat cerebral cortex alpha-1 adrenergic receptor by liquid scintillation counting analysis
Format: tissue-based
Give the value as a plain number.

// worked examples, pKi included
1) Cl.O=C1CCCN1CCCCN1CCN(c2ccccc2Cl)CC1 :: 7.3
2) Cl.O=C1CCCN1CCN1CCN(C(c2ccc(F)cc2)c2ccc(F)cc2)CC1 :: 6.43
3) Cl.O=C1CCCN1CCCCN1CCN(C(c2ccccc2)c2ccccc2)CC1 :: 6.65
4) Cl.O=C1CCCN1CCN1CCN(c2ccc(Cl)cc2)CC1 :: 5.51
5) Cc1ccccc1N1CCN(CCCCN2CCCC2=O)CC1.Cl :: 7.14

Attention now shifts to the item below.
Input Cl.O=C1CCCN1CCCCN1CCN(C(c2ccc(F)cc2)c2ccc(F)cc2)CC1 . Output pKi: 7.07
